Attribution: PubChem BioAssay (NCI)

# growth inhibition per entry
experiment: NCI Yeast Anticancer Drug Screen. Data for the mlh1 rad18 strain (AID 175); details: S. cerevisiae mlh1 rad18 strain growth inhibition; at 50.0 µM; hits give high values
The panel holds about 79,000 compounds, 15% with a hit somewhere; the sample as a whole holds those more often.
experimental-endpoint: growth inhibition (%)

{"compound": "O=P1(N(CCCl)CCCl)Oc2ccc(Cl)cc2Sc2c(ccc(Cl)c2Cl)O1 (stereo not drawn)", "experimental-endpoint": "growth inhibition", "measurement": 46.7}
{"compound": "CC(=O)Nc1cccc([As]=O)c1 (stereo not drawn)", "experimental-endpoint": "growth inhibition", "measurement": 19.1}
{"compound": "CC(C)OP(=O)(NC(=S)c1ccccc1)OC(C)C", "experimental-endpoint": "growth inhibition", "measurement": 13.9}
{"compound": "CC(=O)C(=[N+]=[N-])C(=O)N(C)CCC#N", "experimental-endpoint": "growth inhibition", "measurement": 20.9}
{"compound": "O=[As]c1ccc2c(c1)NC(O)=CO2 (stereo not drawn)", "experimental-endpoint": "growth inhibition", "measurement": 32.5}
{"compound": "O=[P+](O)c1cccnc1", "experimental-endpoint": "growth inhibition", "measurement": 13.8}
{"compound": "COc1ccc(CCF)cc1", "experimental-endpoint": "growth inhibition", "measurement": -3.85}
{"compound": "CNC(C)Cc1ccccc1OC (stereo not drawn)", "experimental-endpoint": "growth inhibition", "measurement": 11.4}
{"compound": "CCC(/C=N/N=C(N)N)=N\\N=C(N)N", "experimental-endpoint": "growth inhibition", "measurement": -10.3}
{"compound": "CCCCCCCCCCC(C(=O)c1ccccc1)N1CCOCC1 (stereo not drawn)", "experimental-endpoint": "growth inhibition", "measurement": -8.4}
{"compound": "CC1(c2ccccc2)CC12C(=O)NC(=O)NC2=O (stereo not drawn)", "experimental-endpoint": "growth inhibition", "measurement": -20.9}
{"compound": "O=C(CI)NCCNC(=O)CI", "experimental-endpoint": "growth inhibition", "measurement": 39.5}
{"compound": "C1=CC2C=CC(C=C1)[PH+]2c1ccccc1.[C-]#[O+].[C-]#[O+].[C-]#[O+].[C-]#[O+].[C-]#[O+].[Cr] (stereo not drawn)", "experimental-endpoint": "growth inhibition", "measurement": -9.35}
{"compound": "O=C1NC2NC3NC(=O)NC3NC2N1 (stereo not drawn)", "experimental-endpoint": "growth inhibition", "measurement": -24.4}
{"compound": "CC1(C)C(=O)/C(=N\\O)C[C@@]2(C)C1=CC[C@@H]1[C@@H]2CC[C@]2(C)C(=O)/C(=N/O)C[C@@H]12", "experimental-endpoint": "growth inhibition", "measurement": -12.1}
{"compound": "Cc1cc(CCl)cc(=O)[nH]1", "experimental-endpoint": "growth inhibition", "measurement": 12.2}
{"compound": "C=C1C(=O)OC2CC3(C)OC3C3OC3C3=CC(OC3=O)C12 (stereo not drawn)", "experimental-endpoint": "growth inhibition", "measurement": 38.1}
{"compound": "CN(C)P1(N(C)C)=NP(c2ccccc2)(c2ccccc2)=NP(N(C)C)(N(C)C)=N1", "experimental-endpoint": "growth inhibition", "measurement": 48.2}
{"compound": "O=C1/C(=C\\c2ccccc2)C2OCC=C3CN4CCC56c7ccccc7N1C5C2C3CC46 (stereo not drawn)", "experimental-endpoint": "growth inhibition", "measurement": -9.05}
{"compound": "CCCCCCP(=O)(O)O.[Zn+2]", "experimental-endpoint": "growth inhibition", "measurement": -8.75}
{"compound": "O=C1NC(=S)NC(=O)C1=Cc1ccc2ccccc2n1", "experimental-endpoint": "growth inhibition", "measurement": -16.4}
{"compound": "CN(C)CC1C(O)C2CCN1CC2 (stereo not drawn)", "experimental-endpoint": "growth inhibition", "measurement": -1.85}
{"compound": "O=C1CN2CCC1CC2", "experimental-endpoint": "growth inhibition", "measurement": 10.8}
{"compound": "NC(c1ccccc1)P(=O)(O)O (stereo not drawn)", "experimental-endpoint": "growth inhibition", "measurement": -33.3}
{"compound": "CN1C2CCC1CC1(C2)SCCS1", "experimental-endpoint": "growth inhibition", "measurement": 4.45}
{"compound": "COc1cc(CC(N)c2ccccc2)ccc1O (stereo not drawn)", "experimental-endpoint": "growth inhibition", "measurement": -18.8}
{"compound": "CC(Br)C(=O)C(CCN(C)C)(c1ccccc1)c1ccccc1 (stereo not drawn)", "experimental-endpoint": "growth inhibition", "measurement": 17.1}
{"compound": "OC1NC2CC3NC(O)C(O)NC3CC2NC1O (stereo not drawn)", "experimental-endpoint": "growth inhibition", "measurement": 11.4}
{"compound": "c1ccc(NC2CCN(C3(c4ccccc4)CCCCC3)CC2)cc1", "experimental-endpoint": "growth inhibition", "measurement": -8.1}
{"compound": "COc1ccc2[nH]cc(CCN(C)C)c2c1", "experimental-endpoint": "growth inhibition", "measurement": -9.85}
{"compound": "Cc1ccc(-n2c(=O)[nH]c3ccccc3c2=O)cc1[N+](=O)[O-]", "experimental-endpoint": "growth inhibition", "measurement": 26.6}
{"compound": "CC(Cc1cccc2c1Nc1ccccc1S2)N(C)CCO (stereo not drawn)", "experimental-endpoint": "growth inhibition", "measurement": -30.1}
{"compound": "CN(C)C1OCCO1", "experimental-endpoint": "growth inhibition", "measurement": -3.35}
{"compound": "CC(C)OP(=O)(OCCCO)C(Cl)Cl (stereo not drawn)", "experimental-endpoint": "growth inhibition", "measurement": 0.75}
{"compound": "CC(C)CCCC(C)CCC1C(=O)NC(=S)NC1=O (stereo not drawn)", "experimental-endpoint": "growth inhibition", "measurement": 32.1}
{"compound": "CCC(C)(C)C(=O)Nc1cccc(OC(=O)NC)c1", "experimental-endpoint": "growth inhibition", "measurement": -16.9}
{"compound": "O=C/C=C/c1ccccc1.[Fe+2].[c-]1[c-][c-][cH-][c-]1.[c-]1[c-][c-][cH-][c-]1", "experimental-endpoint": "growth inhibition", "measurement": 0.4}
{"compound": "COc1cc2c(cc1O)CCN[C@H]2C", "experimental-endpoint": "growth inhibition", "measurement": -1.45}
{"compound": "CC(Br)[N+](=O)[O-] (stereo not drawn)", "experimental-endpoint": "growth inhibition", "measurement": 5.35}
{"compound": "Oc1ccccc1C=NC1CCCCC1.Oc1ccccc1C=NC1CCCCC1.[Ni+2]", "experimental-endpoint": "growth inhibition", "measurement": -15.4}
{"compound": "O=[N+]([O-])c1ccc2sc3ccccc3c2c1", "experimental-endpoint": "growth inhibition", "measurement": 58.8}
{"compound": "COC(=O)CP(=O)(OC)OC", "experimental-endpoint": "growth inhibition", "measurement": 7.2}
{"compound": "COc1cc2c(cc1O)CNCC2c1ccc(O)c(C)c1 (stereo not drawn)", "experimental-endpoint": "growth inhibition", "measurement": -4.7}
{"compound": "O=C(CC(=O)C(F)(F)F)c1cccs1.O=C(CC(=O)C(F)(F)F)c1cccs1.O=C(CC(=O)C(F)(F)F)c1cccs1.[Tb]", "experimental-endpoint": "growth inhibition", "measurement": 28.2}
{"compound": "CC([Se])=Nc1ccc(Br)cc1", "experimental-endpoint": "growth inhibition", "measurement": 9.1}
{"compound": "CSCCC(N)C(=O)O.[Pb] (stereo not drawn)", "experimental-endpoint": "growth inhibition", "measurement": -20.2}
{"compound": "CC(=O)N1CN2CN(C1)CN(C(C)=O)C2", "experimental-endpoint": "growth inhibition", "measurement": -5.85}
{"compound": "N#Cc1ccc(Cl)cc1", "experimental-endpoint": "growth inhibition", "measurement": 7.9}
{"compound": "N.N.N.N.O=N[O-].O=N[O-].[Cl-].[Co+3]", "experimental-endpoint": "growth inhibition", "measurement": 0.2}
{"compound": "Nc1c(Cl)c(Cl)nc(C(=O)O)c1Cl", "experimental-endpoint": "growth inhibition", "measurement": 24.2}
{"compound": "Clc1cccc(Cl)c1NC1=NCCS1", "experimental-endpoint": "growth inhibition", "measurement": 6.45}
{"compound": "CCOP(=O)(CC(=O)C1CC1)OCC", "experimental-endpoint": "growth inhibition", "measurement": -43.1}
{"compound": "CC(C)(O)OC1COC(C2CS2)C1O (stereo not drawn)", "experimental-endpoint": "growth inhibition", "measurement": -22.4}
